# Tested on: rodent lifetime carcinogenesis bioassay, tumor incidence TD50
# test-method-notes: carcinogenic potency in animals, long-term in vivo studies, CPDB compilation (AID 1745844)
# condition-summary: rat; strain Sprague-Dawley; males; i.p.; site: mammary gland; lesion: adenocarcinoma, NOS + adenoma, NOS; dosed 26 weeks; study length 61 weeks
recorded-endpoint: TD50

# TD50 measured on rodent lifetime carcinogenesis bioassay, tumor incidence TD50 for item CNNCc1ccc(C(=O)NC(C)C)cc1 = 4.5 mg/kg/day

###

# System: rodent lifetime carcinogenesis bioassay, tumor incidence TD50
# test-method-notes: carcinogenic potency in animals, long-term in vivo studies, CPDB compilation (AID 1745844)
# condition-summary: rat; strain Osborne-Mendel; males; in feed; site: any site (literature study); lesion: several types; types named in the paper; dosed 117 weeks; study length 117 weeks
The source made the active and inactive calls. No rule for the calls is given here.
recorded-endpoint: TD50

Note to self: TD50 recorded for CC(COc1ccc(C(C)(C)C)cc1)OS(=O)OCCCl (stereo unspecified) was 198 mg/kg/day (inactive)

###

# Test system: rodent lifetime carcinogenesis bioassay, tumor incidence TD50
# test-method-notes: carcinogenic potency in animals, long-term in vivo studies, CPDB compilation (AID 1745844)
# condition-summary: mouse; strain Swiss albino; females; in drinking water; site: blood vessels; lesion: several types; types named in the paper; dosed 99 weeks; study length 100 weeks
recorded-endpoint: TD50

// TD50 value for CN(N)C=O : 6.04 mg/kg/day

###

# System: rodent lifetime carcinogenesis bioassay, tumor incidence TD50
# test-method-notes: carcinogenic potency in animals, long-term in vivo studies, CPDB compilation (AID 1745844)
# condition-summary: mouse; strain B6C3F1; males; in feed; site: liver; lesion: hepatocellular adenoma + hepatocellular carcinoma + neoplastic nodule; dosed 95 weeks; study length 104 weeks
recorded-endpoint: TD50 (mg/kg/day)
Quick note: give the figure in mg/kg/day, leave out the unit.

// compound Nc1ccc(N)c(Cl)c1 , assay rodent lifetime carcinogenesis bioassay, tumor incidence TD50, TD50 value: 1310

###

# Test system: rodent lifetime carcinogenesis bioassay, tumor incidence TD50
# test-method-notes: carcinogenic potency in animals, long-term in vivo studies, CPDB compilation (AID 1745844)
# condition-summary: mouse; strain Swiss; males; i.p.; site: any site (literature study); lesion: benign tumor; dosed 26 weeks; study length 72 weeks
recorded-endpoint: TD50 (mg/kg/day)
Express your answer in mg/kg/day, writing the number without its unit.

Recorded result, CN(N=O)C(=O)N[C@@H](C=O)[C@@H](O)[C@H](O)[C@H](O)CO , TD50: 0.698

###

# Tested on: rodent lifetime carcinogenesis bioassay, tumor incidence TD50
# test-method-notes: carcinogenic potency in animals, long-term in vivo studies, CPDB compilation (AID 1745844)
# condition-summary: rat; strain Fischer 344; females; in feed; site: any site (literature study); lesion: several types; types named in the paper; dosed 104 weeks; study length 104 weeks
Activity calls are given as the source filed them. The rule behind the calls is not given here.
recorded-endpoint: TD50

Known TD50 results, listed for orientation:
Entry under test: Cc1ccc(OP(=O)(Oc2ccc(C)cc2)Oc2ccc(C)cc2)cc1 . Its TD50 was 21.6 mg/kg/day

Entry Brc1cc(Br)c(-c2cc(Br)c(Br)cc2Br)cc1Br — recorded TD50 = 2.38 mg/kg/day

Lab note: C[C@H]1CCCC(=O)CCC/C=C/c2cc(O)cc(O)c2C(=O)O1 gave TD50 of 80.9 mg/kg/day (inactive)

Entry Cc1cc(O)c2c(c1)C(=O)c1cc(O)cc(O)c1C2=O — recorded TD50 = 797 mg/kg/day

// recorded TD50 for CCNC(=S)NCC : 21.5 mg/kg/day

Summary for this compound, Cc1ccccc1N : TD50 is 75.8 mg/kg/day

Turning to the following compound.
For record Cc1cc(O)c(C(C)(C)C)cc1Sc1cc(C(C)(C)C)c(O)cc1C the listed TD50 is 196 mg/kg/day

The reported measurements were obtained from PubChem BioAssay AID1745844.
